SYSTEM UNDER TEST: Recombinant human FGFR1 (Homo sapiens, UniProt P11362)
Sequence (P11362 22-822): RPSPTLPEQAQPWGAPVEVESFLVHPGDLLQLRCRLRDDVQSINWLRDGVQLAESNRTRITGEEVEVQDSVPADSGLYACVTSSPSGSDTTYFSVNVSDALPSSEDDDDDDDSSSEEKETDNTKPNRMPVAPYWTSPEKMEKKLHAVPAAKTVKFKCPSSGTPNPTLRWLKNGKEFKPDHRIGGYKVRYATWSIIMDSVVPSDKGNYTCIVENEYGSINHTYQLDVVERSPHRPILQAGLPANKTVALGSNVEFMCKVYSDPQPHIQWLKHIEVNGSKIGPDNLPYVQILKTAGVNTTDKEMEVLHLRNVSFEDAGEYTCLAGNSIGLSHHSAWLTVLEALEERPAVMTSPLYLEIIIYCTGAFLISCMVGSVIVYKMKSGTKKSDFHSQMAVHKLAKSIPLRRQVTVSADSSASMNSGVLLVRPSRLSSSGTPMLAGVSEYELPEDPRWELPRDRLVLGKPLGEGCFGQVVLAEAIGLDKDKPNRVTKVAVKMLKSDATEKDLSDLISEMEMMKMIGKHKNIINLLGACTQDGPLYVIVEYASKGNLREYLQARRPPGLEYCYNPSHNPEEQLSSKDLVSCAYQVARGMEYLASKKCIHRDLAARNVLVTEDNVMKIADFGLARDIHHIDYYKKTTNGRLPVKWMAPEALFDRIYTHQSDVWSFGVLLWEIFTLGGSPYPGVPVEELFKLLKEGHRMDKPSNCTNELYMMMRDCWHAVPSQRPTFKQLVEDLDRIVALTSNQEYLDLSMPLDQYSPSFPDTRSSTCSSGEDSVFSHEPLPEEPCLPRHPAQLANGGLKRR
EXPERIMENT SUMMARY: Transcreener Kinase Assay of FGFR1
Assay type: biochemical
EXPERIMENTAL SETUP: read-out: FGFR1 (FP) IC50
QUANTITY KIND: IC50 (nM)

P = CNC(=O)c1cc(CCc2cnc(Nc3cnn(C4COC4)c3)nc2)c(F)c(OC)c1
Q = CNC(=O)c1cc(COc2cnc(Nc3ccc(N4C[C@@H](C)N[C@@H](C)C4)c(F)c3)nc2)c(Cl)c(OC)c1
R = CCN1CCN(c2ccc(Nc3ncc(CCc4cc(OC)cc(C(=O)NOC)c4)cn3)cc2)C[C@H]1C
S = CNC(=O)c1cc(CCc2cnc(Nc3cnn(C4CNC4)c3)nc2)c(F)c(OC)c1
Please list the entries, largest IC50 first. Give the order by naming the labels one after another as requested.
P, S, Q, R
(P: 28 nM, S: 15 nM, Q: 10 nM, R: 5 nM)

1 = CNC(=O)c1cc(CCc2cnc(Nc3ccc4nncn4c3)nc2)c(F)c(OC)c1
2 = CNC(=O)c1cc(OC)c(F)c(COc2cnc(Nc3ccc(N4C[C@@H](C)N[C@@H](C)C4)cc3)nc2)c1F
3 = CNC(=O)c1cc(CCc2cnc(Nc3cnn(-c4ccc(C)nc4)c3)nc2)c(Cl)c(OC)c1
Place the items in sequence of falling IC50. The reply should contain the labels ordered as requested.
1, 3, 2
(1: 37 nM, 3: 19 nM, 2: 13 nM)

Reference for the values: patent US20160052926A1
